molecular target: DOPARS (Methanocaldococcus jannaschii, UniProt Q57834, D158A/D286A/E220K/F261S/H283P/H70A/I159A/L282P/L65E/M285R/N268D/P284L/Y119F); experiment: isothermal titration calorimetry
Sequence (Q57834 whole entry L65E/H70A/Y119F/D158A/I159A/E220K/F261S/N268D/L282P/H283P/P284L/M285R/D286A): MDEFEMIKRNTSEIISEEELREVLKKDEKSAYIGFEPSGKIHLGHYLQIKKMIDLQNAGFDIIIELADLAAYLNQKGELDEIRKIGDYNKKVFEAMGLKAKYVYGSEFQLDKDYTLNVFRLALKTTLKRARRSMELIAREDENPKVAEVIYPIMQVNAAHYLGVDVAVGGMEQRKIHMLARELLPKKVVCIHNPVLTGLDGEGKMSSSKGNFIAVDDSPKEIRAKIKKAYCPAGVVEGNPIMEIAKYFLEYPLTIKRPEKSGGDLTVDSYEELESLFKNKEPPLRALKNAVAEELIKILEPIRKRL
QUANTITY_MEASURED: Kd

[[record]]
compound = "N[C@@H](Cc1ccc(O)c(O)c1)C(=O)O [DOPA, 3,4-Dihydroxy-L-phenylalanine]"
result = "11.7 µM"

